# key: entry, value: PBM binding z-score
- System: RARa homodimer (NR concentration 270 nM)
- ASSAY EXPLANATION: PBM binding z-score (relative to random genomic background probes); higher = stronger binding; sequences stand for … in GC…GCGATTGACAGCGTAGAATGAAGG
I only need the number, thanks.

>  <SEQUENCE CODE>
CGAACTAGGTCATCAAGGACAGTGAATACATTGA

>  <TARGET OR SYSTEM>
RARa homodimer (NR concentration 270 nM)

>  <PBM binding z-score>
0.127

$$$$
>  <SEQUENCE CODE>
GCAGACAGGTGAAACACAGGTAACTCAGGGTGGC

>  <TARGET OR SYSTEM>
RARa homodimer (NR concentration 270 nM)

>  <PBM binding z-score>
-0.402

$$$$
>  <SEQUENCE CODE>
CCACCAAGGTGAACAAGGTCGTTGATTACTATTC

>  <TARGET OR SYSTEM>
RARa homodimer (NR concentration 270 nM)

>  <PBM binding z-score>
0.52

$$$$

INPUT: Endpoint output: PBM binding z-score of GTATCAAGGTGAATAGGTCGTTGATGAGTAGGCG . Value?
OUTPUT: 0.786

INPUT: Endpoint output: PBM binding z-score of ATATATAGGTTATCGGGTCATTCAGTTTGCGCAT . Value?
OUTPUT: 3.1

INPUT: Endpoint output: PBM binding z-score of CCGACTGGGGCCGAAAGGTTACCATACCATCCGG . Value?
OUTPUT: -0.324

====

- Test system: RARg:RXRa (NR concentration 270 nM, RXRa partner concentration 90 nM)
- ASSAY EXPLANATION: PBM binding z-score (relative to random genomic background probes); higher = stronger binding; sequences stand for … in GC…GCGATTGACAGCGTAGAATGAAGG
READOUT LABEL: PBM binding z-score
I only need the number, thanks.

Record excerpt, results attached:
>  <SEQUENCE CODE>
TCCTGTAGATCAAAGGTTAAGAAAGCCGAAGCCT

>  <PBM binding z-score>
1.89

$$$$
>  <SEQUENCE CODE>
TAGCCTAGGTCAGATCGGGCCAGTTTACGCTATA

>  <PBM binding z-score>
2.54

$$$$
>  <SEQUENCE CODE>
AGAATGAGGTTAAGATGAGGGAAACAGAATACAT

>  <PBM binding z-score>
2.21

$$$$
>  <SEQUENCE CODE>
ATATGTAGGTTAAGGGTCATTCTGGTTGGTTCGC

>  <PBM binding z-score>
4.65

$$$$
>  <SEQUENCE CODE>
CCTCGGAGGACAAAAGGAGGTCAGAGCTGCCAGA

>  <PBM binding z-score>
3.24

$$$$
>  <SEQUENCE CODE>
GCGACTGGGGCATCTGCAGGTTACCATAACTTAA

>  <PBM binding z-score>
1.21

$$$$

INPUT: Endpoint output: PBM binding z-score of AGAATGAGGTTATACGTAGATCTGGGAAGAAAGT . Value?
OUTPUT: 1.39

INPUT: Endpoint output: PBM binding z-score of AGAATGAGGTTACCAAAGCTCAGGGAAACGCTTG . Value?
OUTPUT: 1.91

INPUT: Endpoint output: PBM binding z-score of TCTCGGAGCACACGAAGGTCAGAGCTTTCCAGAG . Value?
OUTPUT: 2.84

INPUT: Endpoint output: PBM binding z-score of CCGACTGGGGCAGAAAGGTTACCTTACCATCCGG . Value?
OUTPUT: 1.25

INPUT: Endpoint output: PBM binding z-score of ACCATTAGTTGAGACGAGGGCAACCGATAGGTTG . Value?
OUTPUT: 0.676

====

- Tested on: PPARg:RXRa DBDmut IVT, anti-RXR (DBD mutation: RXRa K156A/R161A, NR concentration 270 nM, RXRa partner concentration 90 nM)
- ASSAY EXPLANATION: PBM binding z-score (relative to random genomic background probes); higher = stronger binding; sequences stand for … in GC…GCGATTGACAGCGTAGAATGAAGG
Use 3 as the dividing line for PBM binding z-score, with the line itself on the y side and lower values as n.

Below are worked cases with known answers.
>  <SEQUENCE CODE>
CGAACGAGGGCATGAGGTGATAGCAAATGCCGAT

>  <QUALITATIVE LABEL>
y

$$$$
>  <SEQUENCE CODE>
CCAGACACGTGAAAGGTAACTCAGTCTGGTACGC

>  <QUALITATIVE LABEL>
n

$$$$
>  <SEQUENCE CODE>
TCTAGTTGGTCAATGGTCACACACTCGAAATGCG

>  <QUALITATIVE LABEL>
n

$$$$

INPUT: Does the reported PBM binding z-score for ATCTCTAGGTAAAGAGAGTTCAGTGAATGCAAAT fall at or above the 3 mark?
OUTPUT: n

INPUT: Does the reported PBM binding z-score for CGAACTAGGTTAGAACAGGACAGTGAAGGATGAT fall at or above the 3 mark?
OUTPUT: y

INPUT: Does the reported PBM binding z-score for TCTTGTAGATCAAGCTGGTTAAGAAAGCCTGAGT fall at or above the 3 mark?
OUTPUT: n

====

- Tested on: THRa homodimer (NR concentration 90 nM)
- ASSAY EXPLANATION: PBM binding z-score (relative to random genomic background probes); higher = stronger binding; sequences stand for … in GC…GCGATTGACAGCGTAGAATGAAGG
READOUT LABEL: PBM binding z-score
I only need the number, thanks.

>  <SEQUENCE CODE>
CTCGAAAGGTCGTGCTCAAGTGAGTATACCAAAC

>  <TARGET OR SYSTEM>
THRa homodimer (NR concentration 90 nM)

>  <PBM binding z-score>
-0.0165

$$$$

INPUT: Endpoint output: PBM binding z-score of CCAGACAGGTGAGAAGGTAACACAGCCTCGATTA . Value?
OUTPUT: 0.195

INPUT: Endpoint output: PBM binding z-score of CAAACTAGGTCGAAGGTCAAAGTCGAGCCAACCA . Value?
OUTPUT: 0.693

INPUT: Endpoint output: PBM binding z-score of AGAATTAGGTTACCAAAGATCAGGGAAACGCTTG . Value?
OUTPUT: 0.308

INPUT: Endpoint output: PBM binding z-score of TGAATGAGGTTATAAGATCATGGAACGTTGCAAA . Value?
OUTPUT: 0.0513

INPUT: Endpoint output: PBM binding z-score of CCAGACAGGTGAAAGGTAGCTCAGTCTGGTACGC . Value?
OUTPUT: -0.421

INPUT: Endpoint output: PBM binding z-score of GCGACTGGGGCAATGCAGGTTACCATAAGGTTGG . Value?
OUTPUT: -0.0652

====

- Tested on: PPARg:RXRa DBDmut IVT, anti-RXR (DBD mutation: RXRa K156A/R161A, NR concentration 270 nM, RXRa partner concentration 90 nM)
- ASSAY EXPLANATION: PBM binding z-score (relative to random genomic background probes); higher = stronger binding; sequences stand for … in GC…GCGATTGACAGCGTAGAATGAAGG
READOUT LABEL: PBM binding z-score
I only need the number, thanks.

>  <SEQUENCE CODE>
CCTGGCAGGCCAATCTGGGTCACTCAAGGCTTGA

>  <PBM binding z-score>
3.55

$$$$

INPUT: Endpoint output: PBM binding z-score of TCAAATAGGTAAAAGGTGAAAGTCGGTGTGGTAA . Value?
OUTPUT: 4.66

INPUT: Endpoint output: PBM binding z-score of TCATATAGGTAAATGATAGGTGAAAGTCCGATCT . Value?
OUTPUT: 3.92

INPUT: Endpoint output: PBM binding z-score of GGTACGAGGGCATTCGAGTTGATAGCATGGCGAT . Value?
OUTPUT: 1.41

INPUT: Endpoint output: PBM binding z-score of ACTAGGAGGCCAAGTTTGGGTCACTCAAACAAAG . Value?
OUTPUT: 1.22

INPUT: Endpoint output: PBM binding z-score of CAAACTAGGTCAAGAGATCAAAGTCCGCTTCCCG . Value?
OUTPUT: 8.62

INPUT: Endpoint output: PBM binding z-score of GCTCGGAGGACATGGTCAGAGCTTTGTCCGTAGA . Value?
OUTPUT: -0.304

INPUT: Endpoint output: PBM binding z-score of CCTAGTTGGTCAGGGTCACACACGCTATAGGTAC . Value?
OUTPUT: 1.32

INPUT: Endpoint output: PBM binding z-score of TCTATTAGTTCAAGGGCAACCGACGAGTCCGTTT . Value?
OUTPUT: 2.36

INPUT: Endpoint output: PBM binding z-score of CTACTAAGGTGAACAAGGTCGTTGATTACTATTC . Value?
OUTPUT: 3.87

INPUT: Endpoint output: PBM binding z-score of CAAACTAGGTCATCCAGGACAGTGAATACATTGA . Value?
OUTPUT: 8.23

INPUT: Endpoint output: PBM binding z-score of CCTTACGGGTCAAGCTTATAGCACGGGTGGTACG . Value?
OUTPUT: 2.26
